Target: Trypanothione reductase (Trypanosoma cruzi) (UniProt P28593)
Sequence (P28593 whole entry, looked up): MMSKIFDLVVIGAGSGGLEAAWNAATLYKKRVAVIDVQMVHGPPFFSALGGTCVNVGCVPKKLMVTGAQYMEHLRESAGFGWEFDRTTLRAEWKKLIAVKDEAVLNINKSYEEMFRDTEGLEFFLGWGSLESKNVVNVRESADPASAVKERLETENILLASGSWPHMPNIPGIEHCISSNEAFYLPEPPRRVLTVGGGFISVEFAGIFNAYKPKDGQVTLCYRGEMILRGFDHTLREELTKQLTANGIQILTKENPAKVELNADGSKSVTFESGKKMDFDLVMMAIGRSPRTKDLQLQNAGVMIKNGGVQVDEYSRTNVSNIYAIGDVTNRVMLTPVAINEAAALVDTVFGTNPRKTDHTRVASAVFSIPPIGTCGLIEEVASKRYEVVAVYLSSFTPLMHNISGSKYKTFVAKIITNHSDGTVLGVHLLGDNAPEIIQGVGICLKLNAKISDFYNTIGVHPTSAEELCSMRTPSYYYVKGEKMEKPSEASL
Assay: Inhibition of Trypanosoma cruzi trypanothione reductase assessed as volume activity per min at 100 uM in presence of NADPH after 1 hr
deltaA values for the compounds below.

{"compound": "[O-][n+]1onc2cc(/C=C\\[S+]([O-])c3ccccc3)ccc21 (centres undefined)", "study target": "Trypanothione reductase (Trypanosoma cruzi) (UniProt P28593)", "deltaA": 0.107}
{"compound": "O=S(=O)(/C=C/c1ccc2c(c1)no[n+]2[O-])c1ccccc1", "study target": "Trypanothione reductase (Trypanosoma cruzi) (UniProt P28593)", "deltaA": 0.099}
{"compound": "O=S(=O)(/C=C\\c1ccc2c(c1)no[n+]2[O-])c1ccccc1", "study target": "Trypanothione reductase (Trypanosoma cruzi) (UniProt P28593)", "deltaA": 0.084}
{"compound": "[O-][n+]1onc2cc(/C=C/[S+]([O-])c3ccccc3)ccc21 (centres undefined)", "study target": "Trypanothione reductase (Trypanosoma cruzi) (UniProt P28593)", "deltaA": 0.105}

----------
Target: Cruzipain (Trypanosoma cruzi)
Test: Inhibition of Trypanosoma cruzi Tulahuen 2 cruzipain at 20 uM
Listed here: items and their measured inhibition.

{"molecule": "[O-][n+]1onc2cc(/C=C\\c3ccccc3)ccc21", "inhibition [%]": 11}
{"molecule": "[O-][n+]1onc2cc(/C=C/[S+]([O-])c3ccccc3)ccc21 (stereo unspecified)", "inhibition [%]": 0}
{"molecule": "[O-][n+]1onc2cc(/C=C\\[S+]([O-])c3ccccc3)ccc21 (stereo unspecified)", "inhibition [%]": 23}
{"molecule": "O=S(=O)(/C=C/c1ccc2c(c1)no[n+]2[O-])c1ccccc1", "inhibition [%]": 0}
{"molecule": "[O-][n+]1onc2cc(/C=C/c3ccccc3)ccc21", "inhibition [%]": 0}
{"molecule": "O=S(=O)(/C=C\\c1ccc2c(c1)no[n+]2[O-])c1ccccc1", "inhibition [%]": 3}

----------
Biological target: Trypanothione reductase (Trypanosoma cruzi)
Test: Inhibition of Trypanosoma cruzi trypanothione reductase assessed as volume activity per minute at 100 uM
Each entry below carries its recorded deltaA.
measured parameter: deltaA

{"compound": "O=S(=O)(/C=C\\c1ccc2c(c1)no[n+]2[O-])c1ccccc1", "study target": "Trypanothione reductase (Trypanosoma cruzi)", "val": 0.104}
{"compound": "[O-][n+]1onc2cc(/C=C\\[S+]([O-])c3ccccc3)ccc21 (centres undefined)", "study target": "Trypanothione reductase (Trypanosoma cruzi)", "val": 0.101}
{"compound": "O=S(=O)(/C=C/c1ccc2c(c1)no[n+]2[O-])c1ccccc1", "study target": "Trypanothione reductase (Trypanosoma cruzi)", "val": 0.102}
{"compound": "[O-][n+]1onc2cc(/C=C/[S+]([O-])c3ccccc3)ccc21 (centres undefined)", "study target": "Trypanothione reductase (Trypanosoma cruzi)", "val": 0.104}

----------
Molecular target: Trypanothione reductase (Trypanosoma cruzi) (UniProt P28593)
Assay: Inhibition of Trypanosoma cruzi trypanothione reductase assessed as volume activity per min at 100 uM after 1 hr
Overview of reported deltaA across a group of compounds:
measured parameter: deltaA

{"compound": "O=S(=O)(/C=C\\c1ccc2c(c1)no[n+]2[O-])c1ccccc1", "study target": "Trypanothione reductase (Trypanosoma cruzi) (UniProt P28593)", "val": 0.102}
{"compound": "[O-][n+]1onc2cc(/C=C\\[S+]([O-])c3ccccc3)ccc21 (centres undefined)", "study target": "Trypanothione reductase (Trypanosoma cruzi) (UniProt P28593)", "val": 0.107}
{"compound": "[O-][n+]1onc2cc(/C=C/[S+]([O-])c3ccccc3)ccc21 (centres undefined)", "study target": "Trypanothione reductase (Trypanosoma cruzi) (UniProt P28593)", "val": 0.086}
{"compound": "O=S(=O)(/C=C/c1ccc2c(c1)no[n+]2[O-])c1ccccc1", "study target": "Trypanothione reductase (Trypanosoma cruzi) (UniProt P28593)", "val": 0.11}
